system: MDA-MB-231; assay: Induction of apoptosis in human MDA-MB-231 cells assessed as increase in cytoplasmic histone-associated DNA fragment level after 24 hrs by ELISA; type: functional, cell-based; details: MDA-MB-231, 24 h
endpoint: EC50 (µM)
Give just the number in µM; leave the unit off.

If you can, please state the reported EC50 value of CCCCCCCCCCCCCC(=O)N[C@H](CO)[C@H](O)c1ccc(N)cc1 . 59

###

molecular target: UniProtKB Q13510; test: Inhibition of human recombinant acid ceramidase using Acyl-NBD-C12-cer as substrate at 80 uM after 8 hrs by fluorescence assay
Sequence (Q13510 22-142 limits assumed): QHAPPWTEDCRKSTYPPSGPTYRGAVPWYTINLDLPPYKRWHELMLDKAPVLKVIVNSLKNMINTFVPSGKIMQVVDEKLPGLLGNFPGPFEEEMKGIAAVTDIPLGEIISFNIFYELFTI
Sequence (Q13510 143-395 limits assumed): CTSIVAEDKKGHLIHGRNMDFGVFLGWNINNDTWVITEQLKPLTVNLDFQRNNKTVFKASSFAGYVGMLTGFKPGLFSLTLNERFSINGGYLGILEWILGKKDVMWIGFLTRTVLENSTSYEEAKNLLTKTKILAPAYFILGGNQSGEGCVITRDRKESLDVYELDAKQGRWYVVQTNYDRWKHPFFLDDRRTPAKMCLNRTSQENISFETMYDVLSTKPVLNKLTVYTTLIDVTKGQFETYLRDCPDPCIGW
endpoint: inhibition

For CCCCCCCCCCCCCC(=O)N[C@H](C)[C@@H](O)c1ccccc1 , what is its reported inhibition? 60%

// data source = ChEMBL document CHEMBL2331537
